Literature compilation of IC50 measurements on SYK kinase (Homo sapiens, UniProt P43405).
Numbers only, in nM.

See these solved cases before continuing.
1) CN(C)c1ccc(-c2cc3nccnc3c(OC[C@@H]3CN(C(=O)C4CCOCC4)CCO3)n2)cc1 ... 204
2) N[C@H]1CCCC[C@H]1Nc1cc2cn[nH]c(=O)c2c(Nc2ccc3nccnc3c2)n1 ... 26

Pending compound:
SYK kinase (Homo sapiens, UniProt P43405) data for C[C@@H]1NC(=O)c2c(-c3cnn4ccc(F)cc34)nc(N[C@@H]3CCCC[C@@H]3N)c(F)c21 ; its IC50: 398

====

Literature compilation of IC50 measurements on SYK kinase (Homo sapiens, UniProt P43405).

See these solved cases before continuing.
1. c1cc(-c2nc(Nc3cnn(C4CCOCC4)c3)c3[nH]ncc3n2)co1 ... 10 to 100 nM
2. CC1(C)C(=O)Nc2cc(Nc3nc4c(N5C[C@H](O)C[C@@H]5c5cccc(F)c5)nccn4n3)ccc21 ... 300 to 3000 nM
3. CC(=O)N1CCO[C@H](COc2nc(-c3ccc4c(c3)CCN4C)cc3nccnc23)C1 ... 61 nM
4. Cc1cnc(Nc2cccc(-c3cnc(N4CCNC(=O)C4(C)C)o3)c2)nc1C ... 1000 to 10000 nM
5. COCCCn1cc(Nc2nc3ccc(S(C)(=O)=O)cc3c3cn[nH]c23)c(OC)n1 ... 100 to 1000 nM

Batch of 3 compounds: report IC50 for each.
1. c1cc(N2CCNCC2)ccc1Nc1nc(C2CC2)nc2cn[nH]c12
2. CN(C)c1ccc(-c2cc3nccnc3c(OC[C@@H]3CN(C(N)=O)CCO3)n2)cc1F
3. CC1(C)OCCc2cc(-c3cc4nccnc4c(OC[C@@H]4CN(S(C)(=O)=O)CCO4)n3)ccc21

Completion:
1: 100 to 1000 nM; 2: 76 nM; 3: 9 nM

Batch of 2 compounds: report IC50 for each.
1. COc1c(Nc2nc3ccc(S(C)(=O)=O)cc3c3cn[nH]c23)cnn1C(C)C
2. CCCNC(=O)c1ccc(Nc2nc3[nH]ccc3c3nccn23)cc1

Completion:
["100 to 1000 nM", "> 10000 nM"]
